# System: Macaca fascicularis PRLR (mfPRLR.mmh; SEQ ID NO:403)
# Sequence (as listed by the source): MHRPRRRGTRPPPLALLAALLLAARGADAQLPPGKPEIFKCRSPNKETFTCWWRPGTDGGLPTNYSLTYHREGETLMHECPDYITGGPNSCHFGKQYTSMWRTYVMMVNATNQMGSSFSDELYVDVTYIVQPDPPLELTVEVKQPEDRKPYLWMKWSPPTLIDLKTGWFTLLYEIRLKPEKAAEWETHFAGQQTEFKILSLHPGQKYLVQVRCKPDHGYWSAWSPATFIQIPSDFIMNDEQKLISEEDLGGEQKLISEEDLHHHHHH
# experimental-protocol: Surface plasmon resonance (Biacore T200), antibody-capture format
# Type: binding
# conditions: 25° C., analyte mfPRLR.mmh
reported-property: ka (M/s)
Unit M/s implied. Number only.

Dear colleague, I am looking for the recorded ka of the following molecule: H1H6804P: fully human anti-PRLR antibody, human IgG1 Fc; HCVR/LCVR SEQ ID NOs 242/250 (antibody, V domains shown) VH: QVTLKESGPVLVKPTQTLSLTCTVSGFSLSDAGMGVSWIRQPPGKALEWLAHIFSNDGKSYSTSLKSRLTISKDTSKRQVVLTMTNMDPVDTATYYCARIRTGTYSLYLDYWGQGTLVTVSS VL: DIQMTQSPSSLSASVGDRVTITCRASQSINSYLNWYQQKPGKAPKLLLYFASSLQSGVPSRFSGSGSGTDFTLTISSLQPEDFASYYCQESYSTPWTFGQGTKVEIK 331000

H1H6790P: fully human anti-PRLR antibody, human IgG1 Fc; HCVR/LCVR SEQ ID NOs 114/122 (antibody, V domains shown) VH: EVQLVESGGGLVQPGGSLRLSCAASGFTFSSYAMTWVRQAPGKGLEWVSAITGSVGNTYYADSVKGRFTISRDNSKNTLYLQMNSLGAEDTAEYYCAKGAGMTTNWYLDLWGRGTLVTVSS VL: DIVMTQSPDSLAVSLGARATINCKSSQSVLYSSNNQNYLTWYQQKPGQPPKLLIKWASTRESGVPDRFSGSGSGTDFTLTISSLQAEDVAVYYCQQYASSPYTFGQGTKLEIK ? 389000

H1H6975N: anti-PRLR antibody, human IgG1 Fc form of H2M6975N of Table 1; HCVR/LCVR SEQ ID NOs 370/378 (antibody, V domains shown, human IgG1 Fc) VH: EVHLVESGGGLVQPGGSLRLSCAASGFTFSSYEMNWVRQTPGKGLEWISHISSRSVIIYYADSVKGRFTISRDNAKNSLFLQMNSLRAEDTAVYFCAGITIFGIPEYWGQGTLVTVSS VL: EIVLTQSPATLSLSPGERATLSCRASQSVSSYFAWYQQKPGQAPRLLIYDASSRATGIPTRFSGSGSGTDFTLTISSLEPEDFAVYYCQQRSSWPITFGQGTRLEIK ? 115000

H1H6762P: fully human anti-PRLR antibody, human IgG1 Fc; HCVR/LCVR SEQ ID NOs 2/10 (antibody, V domains shown) VH: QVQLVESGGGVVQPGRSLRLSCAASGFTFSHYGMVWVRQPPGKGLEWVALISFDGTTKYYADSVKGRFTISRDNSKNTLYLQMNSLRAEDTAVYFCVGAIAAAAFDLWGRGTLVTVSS VL: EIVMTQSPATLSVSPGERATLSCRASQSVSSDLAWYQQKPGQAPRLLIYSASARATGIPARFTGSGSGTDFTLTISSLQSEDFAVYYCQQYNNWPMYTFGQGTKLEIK ? 408000

H1H6765P: fully human anti-PRLR antibody, human IgG1 Fc; HCVR/LCVR SEQ ID NOs 18/26 (antibody, V domains shown) VH: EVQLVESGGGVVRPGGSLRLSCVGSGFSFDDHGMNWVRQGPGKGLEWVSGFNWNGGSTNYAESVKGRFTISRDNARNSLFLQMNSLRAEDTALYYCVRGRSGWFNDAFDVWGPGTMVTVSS VL: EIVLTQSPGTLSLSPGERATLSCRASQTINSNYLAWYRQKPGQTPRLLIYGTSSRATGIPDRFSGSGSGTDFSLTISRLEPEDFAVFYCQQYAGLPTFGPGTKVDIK ? 527000

H1H6793P: fully human anti-PRLR antibody, human IgG1 Fc; HCVR/LCVR SEQ ID NOs 146/154 (antibody, V domains shown) VH: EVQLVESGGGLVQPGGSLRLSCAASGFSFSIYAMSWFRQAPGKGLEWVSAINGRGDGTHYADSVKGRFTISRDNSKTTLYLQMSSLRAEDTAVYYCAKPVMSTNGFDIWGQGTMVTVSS VL: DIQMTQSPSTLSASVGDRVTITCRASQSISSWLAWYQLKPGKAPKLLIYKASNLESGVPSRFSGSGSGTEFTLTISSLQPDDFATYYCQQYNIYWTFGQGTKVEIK ? 177000

H1H6782P: fully human anti-PRLR antibody, non-blocking; HCVR/LCVR SEQ ID NOs 66/74 (antibody, V domains shown) VH: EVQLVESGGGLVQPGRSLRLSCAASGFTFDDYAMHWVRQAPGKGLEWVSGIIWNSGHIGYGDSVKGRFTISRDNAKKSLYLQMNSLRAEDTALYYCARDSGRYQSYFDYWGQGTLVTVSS VL: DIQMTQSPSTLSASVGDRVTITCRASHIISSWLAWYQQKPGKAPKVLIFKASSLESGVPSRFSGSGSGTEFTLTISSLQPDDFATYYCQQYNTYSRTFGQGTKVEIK ? 266000

H1H6801P: fully human anti-PRLR antibody, human IgG1 Fc; HCVR/LCVR SEQ ID NOs 210/218 (antibody, V domains shown) VH: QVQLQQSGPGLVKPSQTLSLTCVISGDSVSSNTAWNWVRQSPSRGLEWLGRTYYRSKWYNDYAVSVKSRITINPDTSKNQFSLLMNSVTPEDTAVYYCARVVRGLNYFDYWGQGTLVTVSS VL: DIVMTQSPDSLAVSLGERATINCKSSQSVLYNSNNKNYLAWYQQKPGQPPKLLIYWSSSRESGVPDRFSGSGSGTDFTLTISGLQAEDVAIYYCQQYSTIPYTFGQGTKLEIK ? 657000
